Quick list: LogP [a] per entry.
- assay protocol: LogP by HPLC on reversed phase columns (EEC directive 79/831 Annex V.A8)
- test context: Table 1, formula (I); LC-UV, acidic range, 0.1% formic acid in water and acetonitrile

CCC(O)(Cn1cncn1)c1cnc(Oc2ccc(C(F)(F)F)cc2)cc1C(F)(F)F (centres unmarked) = 3.52^[a]
OC(Cn1cncn1)c1ccc(Oc2ccc(OC(F)(F)F)cc2)nc1C(F)(F)F (centres unmarked) = 2.89^[a]
OC(Cn1cncn1)c1cnc(Oc2ccc(Cl)cc2F)cc1C(F)(F)F (centres unmarked) = 2.86^[a]
CC(O)(Cn1cncn1)c1cnc(Oc2ccc(Cl)cc2)cc1Cl (single isomer, unassigned) [I.53] = 2.53^[a]
COc1ccc(Oc2ccc(C(C)(O)Cn3cncn3)c(Cl)n2)c(Cl)c1 (centres unmarked) = 2.56^[a]
CC(O)(Cn1cncn1)c1ccc(Oc2ccc(S(F)(F)(F)(F)F)cc2)nc1C(F)(F)F (centres unmarked) = 3.25^[a]

Q: # query: LogP [a] of entry CC(O)(Cn1cncn1)c1cnc(Oc2ccc(Cl)cc2)cc1C(F)(F)F (single isomer, unassigned) [I.45]
A: 2.84^[a]

Q: And the next one, OC(Cn1cncn1)(c1ccc(Oc2ccc(Cl)cc2)nc1C(F)(F)F)C1CC1 (centres unmarked) [I.80] ?
A: 3.32^[a]

Q: And the next one, Cc1ccc(Oc2ccc(C(O)Cn3cncn3)c(Cl)n2)cc1Cl (centres unmarked) ?
A: 2.73^[a]

###

Quick list: LogP [a] per entry.
- assay protocol: LogP by HPLC on reversed phase columns (EEC directive 79/831 Annex V.A8)
- test context: Table 1, formula (I); LC-UV, acidic range, 0.1% formic acid in water and acetonitrile

A selection of reference data follows.
OC(Cn1cncn1)(c1ccc(Oc2ccc(C(F)F)cc2)nc1C(F)(F)F)C1CC1 (stereo not drawn) [I.93] = 3.13^[a]
CC(O)(Cn1cncn1)c1cnc(Oc2ccc(C(F)(F)F)cc2)cc1C(F)(F)F (stereo not drawn) [I.50] = 3.11^[a]
OC(Cn1cncn1)c1ccc(Oc2ccc(Cl)cc2F)nc1C(F)(F)F (stereo not drawn) [I.70] = 2.78^[a]
Cc1cc(Cl)ccc1Oc1ccc(C(O)Cn2cncn2)c(Cl)n1 (stereo not drawn) [I.15] = 2.75^[a]
OC(Cn1cncn1)c1ccc(Oc2ccc(Cl)cc2)nc1Cl (stereo not drawn) [I.14] = 2.42^[a]
Cc1cc(Cl)ccc1Oc1ccc(C(C)(O)Cn2cncn2)c(Cl)n1 (stereo not drawn) [I.28] = 2.94^[a]
Cc1ccc(Oc2ccc(C(C)(O)Cn3cncn3)c(Cl)n2)cc1Cl (stereo not drawn) [I.29] = 3.00^[a]
CC(O)(Cn1cncn1)c1cnc(Oc2ccc(Cl)cc2)cc1C(F)F (stereo not drawn) [I.64] = 2.68^[a]

Q: # query: LogP [a] of entry CC(O)c1ccc(Oc2ccc(C(O)Cn3cncn3)c(Cl)n2)cc1 (stereo not drawn) [I.24]
A: 1.48^[a]

Q: And the next one, OC(Cn1cncn1)c1cnc(Oc2ccc(OC(F)(F)F)cc2)cc1C(F)(F)F (stereo not drawn) [I.43] ?
A: 3.00^[a]

Q: And the next one, CC(O)(Cn1cncn1)c1cnc(Oc2ccc(C(F)F)cc2)cc1C(F)(F)F (stereo not drawn) [I.56] ?
A: 2.73^[a]

Q: And the next one, CCCC(O)(Cn1cncn1)c1ccc(Oc2ccc(Cl)cc2)nc1C(F)(F)F (racemic) [I.100] ?
A: 3.55^[a]

Q: And the next one, CC(O)(Cn1cncn1)c1ccc(Oc2ccc(Cl)cc2)nc1C(F)(F)F (racemic) [I.96] ?
A: 2.68^[a]

###

- assay protocol: LogP by HPLC on reversed phase columns (EEC directive 79/831 Annex V.A8)
- test context: Table 1, formula (I); LC-UV, acidic range, 0.1% formic acid in water and acetonitrile
measurement label: LogP [a]

OC(Cn1cncn1)c1ccc(Oc2ccc(Cl)cc2)nc1F (centres unmarked) = 2.23^[a]
CC(O)(Cn1cncn1)c1cnc(Oc2ccc(Br)cc2)cc1C(F)F (centres unmarked) = 2.78^[a]
CC(O)(Cn1cncn1)c1ccc(Oc2ccc(Cl)cc2)nc1Cl (single isomer, unassigned) [I.51] = 2.62^[a]

// next item, LogP [a] requested
Q: # query: LogP [a] of entry CC(O)(Cn1cncn1)c1ccc(Oc2ccc(Br)cc2)nc1C(F)(F)F (single isomer, unassigned) [I.101]
A: 2.94^[a]

###

- assay protocol: LogP by HPLC on reversed phase columns (EEC directive 79/831 Annex V.A8)
- test context: Table 1, formula (I); LC-UV, acidic range, 0.1% formic acid in water and acetonitrile
Quick list: LogP [a] per entry.

Q: # query: LogP [a] of entry OC(Cn1cncn1)c1ccc(Oc2ccc(Cl)cc2)nc1OC(F)(F)F (centres unmarked)
A: 2.92^[a]

Q: And the next one, CC(O)(Cn1cncn1)c1cnc(Oc2ccc(Cl)cc2)cc1C(F)(F)F (single isomer, unassigned) [I.46] ?
A: 2.93^[a]

Q: And the next one, OC(Cn1cncn1)c1cnc(Oc2ccc(S(F)(F)(F)(F)F)cc2)cc1C(F)(F)F (racemic) [I.36] ?
A: 3.15^[a]

###

- assay protocol: LogP by HPLC on reversed phase columns (EEC directive 79/831 Annex V.A8)
- test context: Table 1, formula (I); LC-UV, acidic range, 0.1% formic acid in water and acetonitrile
- Procedure: Measurement of LogP values was performed according to EEC directive 79/831 Annex V.A8 by HPLC (High Performance Liquid Chromatography) on reversed phase columns with the following methods: Lambda-max-values were determined using UV-spectra from 200 nm to 400 nm and the peak values of the chromatographic signals.
Quick list: LogP [a] per entry.

A selection of reference data follows.
OC(Cn1cncn1)(c1ccc(Oc2ccc(Cl)cc2)nc1C(F)(F)F)C1CC1 (stereo not shown) [I.71] = 3.35^[a]
OC(Cn1cncn1)c1ncc(Oc2ccccc2)cc1Cl (stereo not shown) [I.22] = 2.01^[a]
CC(C)c1ccc(Oc2ccc(C(C)(O)Cn3cncn3)c(C(F)(F)F)n2)cc1 (stereo not shown) [I.75] = 3.35^[a]

// next item, LogP [a] requested
Q: # query: LogP [a] of entry OC(Cn1cncn1)c1ccc(Oc2ccc(S(F)(F)(F)(F)F)cc2)nc1C(F)(F)F (stereo not shown) [I.60]
A: 3.08^[a]

###

- assay protocol: LogP by HPLC on reversed phase columns (EEC directive 79/831 Annex V.A8)
- test context: Table 1, formula (I); LC-UV, acidic range, 0.1% formic acid in water and acetonitrile
measurement label: LogP [a]

A selection of reference data follows.
OC(Cn1cncn1)c1ccc(Oc2ccc(C(F)(F)F)cc2)nc1C(F)(F)F (centres unmarked) [I.61] = 2.84^[a]
OC(Cn1cncn1)c1cnc(Oc2ccc(C(F)(F)F)cc2)cc1C(F)(F)F (single isomer, unassigned) [I.92] = 2.86^[a]
OC(Cn1cncn1)c1ccc(Oc2ccccc2F)nc1Cl (centres unmarked) [I.19] = 2.08^[a]
CC(O)(Cn1cncn1)c1cnc(Oc2ccc(Cl)cc2)cc1Cl (single isomer, unassigned) [I.54] = 2.53^[a]
OC(Cn1cncn1)c1cnc(Oc2ccc(C(F)F)cc2)cc1C(F)(F)F (centres unmarked) [I.55] = 2.55^[a]

Q: # query: LogP [a] of entry CC(O)(Cn1cncn1)c1ccc(Oc2ccc(Br)cc2)nc1C(F)(F)F (single isomer, unassigned) [I.102]
A: 2.94^[a]

Q: And the next one, OC(Cn1cncn1)c1ccc(Oc2cc(F)c(F)c(F)c2)nc1Cl (centres unmarked) [I.20] ?
A: 1.65^[a]

Q: And the next one, OC(Cn1cncn1)c1ccc(Oc2ccc(S(F)(F)(F)(F)F)cc2)nc1Cl (centres unmarked) [I.34] ?
A: 2.90^[a]

Q: And the next one, CC(O)(Cn1cncn1)c1ccc(Oc2ccc(F)cc2)nc1Cl (centres unmarked) [I.27] ?
A: 2.28^[a]

Q: And the next one, CC(O)(Cn1cncn1)c1ccc(Oc2ccc(Cl)cc2F)nc1C(F)(F)F (centres unmarked) [I.89] ?
A: 3.15^[a]

Q: And the next one, OC(Cn1cncn1)c1ccc(Oc2ccc(Cl)cc2)nc1C(F)F (centres unmarked) [I.25] ?
A: 2.44^[a]
